# System: KM12
# assay.notes: NCI tumour cell line growth inhibition, 48 h
Active and inactive are the calls of the source. No stated cut-off is given here; in the data, active = GI50 up to about 1.1 µM and inactive = higher.

molecule | target.system | GI50
CC[C@H](C)[C@H](NC(=O)[C@@]1(O)[C@H](O)[C@]2(CC)C=CCN3CC[C@@]4(c5cc(Br)c(OC)cc5N(C)[C@@H]14)[C@@H]32)C(=O)OC | KM12 | 27.2 µM (inactive)
CN(C)C(CN)CC1=C(CC(CN)N(C)C)CCC1 (configuration not stated) | KM12 | > 100 µM (inactive)
N#CCC(=O)c1cc(OCc2cc(OCc3ccc(Br)cc3)cc(OCc3ccc(Br)cc3)c2)cc(OCc2cc(OCc3ccc(Br)cc3)cc(OCc3ccc(Br)cc3)c2)c1 | KM12 | > 100 µM (inactive)
O=c1[nH][nH]c(=O)c2c1ccc1oc3ccccc3c12 | KM12 | > 100 µM (inactive)
Oc1cc(-c2ccccc2)nc2cc3c(cc12)OCO3 | KM12 | 1.54 µM (inactive)
Cn1c(=O)[nH]c2sc3c(c2c1=N)CCCC3 | KM12 | > 75 µM (inactive)
COc1ccccc1/C=C1\CCC(CCN2CCOCC2)C1=O (configuration not stated) | KM12 | > 100 µM (inactive)
c1csc(-c2nnc(C34CC5CC(CC(C5)C3)C4)o2)c1 | KM12 | 52 µM (inactive)
COC(=O)[C@]1(NC(=O)c2ccccc2)C[C@H]1C=O | KM12 | > 61.5 µM (inactive)
O=C1C(O)=C(CCCCCCCCC2CCCCC2)C(=O)c2ccccc21 | KM12 | 8.49 µM (inactive)
COc1ccc(CCN2C(=O)CC34C=CC(CC3C2=O)O4)cc1OC (configuration not stated) | KM12 | > 100 µM (inactive)
CCN(CC)CCN1C(=O)C(=O)N(c2cccc3ccccc23)C1=O | KM12 | > 10 µM (inactive)
